test system: HS 578T breast; assay: NCI-60 one-dose screen, 48 h (100 = growth as untreated, 0 = no growth, -100 = all killed); details: 10 µM unless noted
This is part of a sample that, as a whole, favours compounds with a hit. Of some 83,000 tested, about 20% had one in any assay. Activity calls are given as the source filed them. The calls were made as follows: active = growth percent below 10; inactive = the rest.
Item-by-item account of growth

Consider the worked cases shown below.
compound=NS(=O)(=O)c1ccc(NNC(=O)CCC(=O)c2ccccc2)cc1 result="94.7% (inactive)"
compound=Cn1cc(NC(=O)c2cc(NC(=O)c3ccc(/C=C/c4ccccc4)cc3)cn2C)cc1C(=O)NCCCN1CCOCC1 result="64.6% (inactive)"
compound="COc1cc2c(c(OC)c1OC)C(=O)CC(c1cccc(NC(=O)c3cc([N+](=O)[O-])ccc3Cl)c1)O2 (centres undefined)" result="15.1% (inactive)"

*Q* # input compound: Brc1ccc(-c2n(Cc3ccc4ccccc4c3)c(-c3ccccc3)c(-c3ccccc3)[n+]2Cc2ccc3ccccc3c2)cc1 ; wanted: its growth
*A* -46.3% (active)
